Recorded values, source PubChem BioAssay.

target: Steroidogenic factor 1 (Homo sapiens); assay: SF1 (NR5A1) inverse agonists, counter-screen for LRH-1 inverse agonist project, cell-based, luminescence, high throughput (AID 651614); conditions: cell-based SF1 luciferase reporter, at 3.6 µM;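 also: cells cotransfected with StAR promoter reporter and SF1 expression vector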
Activity calls are given as the source filed them. Rule as the data show it: active = inhibition above about 44%; inactive = the rest.
In this exercise, the only acceptable responses are active, inactive

Example results:
1) Cc1cccc(NC(=O)c2cc(Cl)ccc2[N+](=O)[O-])c1
active
2) CCN(CC)C(=O)CSc1nc2ccc(NC(=O)CSc3nccn3C)cc2s1
inactive
3) CCCc1cc(=O)oc2cc(C)cc(OCC(=O)Nc3ccccn3)c12
active
4) Nc1ccc(C(=O)NN2C(=O)[C@H](Cl)C2c2ccc(Cl)cc2)cc1 (stereo not given in full)
active
5) O=C(CSc1nc(=O)n2cc(Cl)ccc2n1)Nc1ccc2c(c1)OCCO2
active
6) Cn1nc(C(C)(C)C)cc1C(=O)NCc1ccc2c(c1)OCO2
active

## Task Tell me the assay call for O=C(C[C@H]1CC[C@@H]2[C@H](COC[C@H](O)CN2Cc2cccc(C(F)(F)F)c2)O1)NCCc1ccccc1 please.
## Result inactive

## Task Follow-up item: C=CCNc1sc(C(=O)c2ccccc2)c(N)c1C#N
## Result active

## Task Follow-up item: Cc1cccc(-n2c(N)c(-c3nc4ccccc4n3C)c3nc4ccccc4nc32)c1
## Result inactive

## Task Follow-up item: CN(Cc1cnc2nc(N)nc(N)c2n1)c1ccc(C(=O)NC(CCC(=O)O)C(=O)O)cc1C(F)(F)F (stereo not given)
## Result active

---

biological target: Steroidogenic factor 1 (Homo sapiens) (UniProt Q13285); experiment: SF1 (NR5A1) inverse agonists, counter-screen for LRH-1 inverse agonist project, cell-based, luminescence, high throughput (AID 651614); conditions: cell-based SF1 luciferase reporter, at 3.6 µM, active compounds read high;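 also: cells cotransfected with StAR promoter reporter and SF1 expression vector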
Sequence (Q13285 whole entry, looked up): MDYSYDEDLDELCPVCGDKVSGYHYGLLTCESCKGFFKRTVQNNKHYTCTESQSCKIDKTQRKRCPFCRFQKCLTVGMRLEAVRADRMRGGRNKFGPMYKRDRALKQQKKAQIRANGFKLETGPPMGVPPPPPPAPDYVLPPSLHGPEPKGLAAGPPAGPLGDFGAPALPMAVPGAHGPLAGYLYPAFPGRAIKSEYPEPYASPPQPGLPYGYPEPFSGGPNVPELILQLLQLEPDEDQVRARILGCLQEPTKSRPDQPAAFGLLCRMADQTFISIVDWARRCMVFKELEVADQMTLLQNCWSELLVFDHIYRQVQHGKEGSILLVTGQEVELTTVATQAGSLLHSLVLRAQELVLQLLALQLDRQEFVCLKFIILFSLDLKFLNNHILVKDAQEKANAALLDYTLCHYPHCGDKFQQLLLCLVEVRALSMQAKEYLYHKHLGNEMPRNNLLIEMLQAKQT
Param threshold (40%) applies to inhibition; output True when value >= threshold, False when value < threshold.

Example results:
1. N#Cc1cc2c(nc1SCC(=O)N1CCOCC1)CCCCC2
False
2. C1=C(CCNc2ncnc3c2[nH]c2ccccc23)CCCC1
True
3. COc1ccc(C(=O)C(C)Oc2cccc(NC(=O)c3cccc([N+](=O)[O-])c3)c2)cc1 (stereo unspecified)
True

## Task Could you verify whether the entry COc1ccc(OC)c(NC(=O)c2nnn(Cc3ccccc3C)c2N)c1 shows inhibition of no less than 40%?
## Result True

## Task Follow-up item: COc1cc(NC(=O)c2ccc([N+](=O)[O-])o2)ccc1NC(=O)c1ccco1
## Result True

## Task Follow-up item: CC[n+]1cc(C)ccc1/C=C/c1ccc(N(C)C)cc1
## Result True

---

target: Steroidogenic factor 1 (Homo sapiens); experiment: SF1 (NR5A1) inverse agonists, counter-screen for LRH-1 inverse agonist project, cell-based, luminescence, high throughput (AID 651614); conditions: cell-based SF1 luciferase reporter, at 3.6 µM, active compounds read high;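 also: cells cotransfected with StAR promoter reporter and SF1 expression vector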
Bridge positions count the residues as written; N and C are the ends. Square brackets hold non-standard residues; d marks the D form. Peptide text beside a SMILES is read from it.
Param threshold (50%) applies to inhibition; output fulfilled when value >= threshold, not fulfilled when value < threshold.

Example results:
1. O=C(Nc1ccc2oc(-c3ccccc3F)nc2c1)c1ccc([N+](=O)[O-])o1
fulfilled
2. Cc1cc(C)c2sc(NC(=O)c3ccc([N+](=O)[O-])o3)nc2c1
fulfilled
3. C#Cc1ccc(NC(=O)C2(C)CCN2C(=O)Cc2ccc(C(C)(C)C)cc2)cc1 (stereo unspecified)
not fulfilled
4. CCCS(=O)(=O)c1cnc(C2COc3ccccc3O2)nc1N (stereo unspecified)
not fulfilled
5. CCOc1ccc(-n2c(-c3ccc(Br)cc3)c[n+]3c2CCCCC3)cc1
fulfilled
6. Cc1nn(Cc2ccc(C(=O)Nc3nccs3)cc2)c(C)c1Cl
fulfilled

## Task Could you verify whether the entry COC(=O)c1ccc(NC(=O)CSc2nc3ncccc3[nH]2)cc1 shows inhibition of no less than 50%?
## Result fulfilled

## Task Follow-up item: Cc1cc(C)c(S(=O)(=O)/N=C2\C=C(Nc3ccc(C(=O)O)cc3)C(=O)c3ccccc32)c(C)c1
## Result fulfilled

## Task Follow-up item: CC(=O)Nc1ccc(NC(=O)CSc2ccc(-c3ccc(-n4ccnc4)cc3)nn2)cc1
## Result fulfilled

## Task Follow-up item: O=C(CN1C(=O)c2ccccc2S1(=O)=O)c1ccc2c(c1)OCCO2
## Result fulfilled

## Task Follow-up item: CC1(C)N=C(N)N=C(N)N1c1ccc(CCCCc2ccccc2)cc1
## Result fulfilled

## Task Follow-up item: CCC(C(=O)NCc1ccccc1)n1c(CSCCOc2ccccc2)nc2ccccc21 (stereo unspecified)
## Result not fulfilled

## Task Follow-up item: COc1cccc(C(NC(C)=O)c2ccc3cccnc3c2O)c1 (stereo unspecified)
## Result fulfilled

## Task Follow-up item: Cc1cc(N2CCN(c3nc4ccccc4s3)CC2)n2ncnc2n1
## Result fulfilled

## Task Follow-up item: COc1cc(N)c2ncccc2c1Cl
## Result not fulfilled

## Task Follow-up item: CC[C@H](C)[C@@H]1NC(=O)[C@@H](CC(C)C)NC(=O)[C@H](C(C)C)NC(=O)[C@H]2CSSC[C@H](NC1=O)C(=O)N2 (cyclo(C[dC]V[dL]I); disulfide 1-2)
## Result fulfilled

## Task Follow-up item: O=C(/C=C/Nc1ccccc1Br)c1ccccn1
## Result fulfilled

## Task Follow-up item: Cc1cc(OCc2nc(N)nc(N)c2-c2ccc(Cl)c(Cl)c2)ccc1[N+](=O)[O-]
## Result fulfilled

## Task Follow-up item: COCC(=O)NC1CCN(CC(=O)Nc2ccc(OC)cc2[N+](=O)[O-])CC1
## Result fulfilled
